- MEASURED ON: G-CSFR (Homo sapiens)
- Construct: incubation with soluble G-CSFR harvest; made in house
- Sequence (Q99062 25-627): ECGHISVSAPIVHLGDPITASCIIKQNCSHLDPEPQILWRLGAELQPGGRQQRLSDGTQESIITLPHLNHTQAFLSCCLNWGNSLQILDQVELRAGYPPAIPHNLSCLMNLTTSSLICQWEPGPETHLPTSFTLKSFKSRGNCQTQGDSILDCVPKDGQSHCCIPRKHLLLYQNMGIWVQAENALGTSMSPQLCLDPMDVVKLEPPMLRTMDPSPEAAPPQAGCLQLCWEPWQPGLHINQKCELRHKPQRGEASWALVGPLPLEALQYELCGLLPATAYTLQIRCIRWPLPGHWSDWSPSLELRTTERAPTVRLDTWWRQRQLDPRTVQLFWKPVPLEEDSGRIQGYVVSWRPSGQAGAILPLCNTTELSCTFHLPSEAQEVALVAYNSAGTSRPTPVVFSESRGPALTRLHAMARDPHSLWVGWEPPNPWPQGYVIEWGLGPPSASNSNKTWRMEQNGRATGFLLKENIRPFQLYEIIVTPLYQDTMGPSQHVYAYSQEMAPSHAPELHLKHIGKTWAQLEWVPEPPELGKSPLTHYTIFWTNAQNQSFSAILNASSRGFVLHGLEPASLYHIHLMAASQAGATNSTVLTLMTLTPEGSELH
- PROTOCOL TEXT: G-CSF radioligand binding assay (SPA beads, 125I labeled G-CSF)
- RECORDED CONDITIONS: reduction by 50% of 125I labeled G-CSF bound to immobilized G-CSFR; overnight at 4° C.
Below, each entry is listed with its recorded IC50.
MEASURED METRIC: IC50

| SUBSTANCE | RECORDED MEASUREMENT |
| --- | --- |
| H-QSNSEREWFCG-NH2 [Example 40, NH2-QSNSEREWFCG-CONH2] | > 200 µM |
| H-KSTGGLTAERDAEKRRWLLTHGGE-OH [Example 66] | > 200 µM |
| H-QSNSEREWFC-NH2 [Example 38, NH2-QSNSEREWFC-CONH2] | > 200 µM |
| H-EQSNSGWVWVGGGGC-NH2 [Example 45, NH2-EQSNSGWVWVGGGGC-CONH2] | 0.5 to 200 µM |
| Ac-NSGWVW-NH2 [Example 43, Ac-NSGWVW-CONH2] | > 200 µM |
| H-STAERLWFCG-NH2 [Example 36, NH2-STAERLWFCG-CONH2] | > 200 µM |
| Ac-ESGWVW-NH2 [Example 42, Ac-ESGWVW-CONH2] | > 200 µM |
| H-EQSNSGWVWV-NH2 [Example 35, NH2-EQSNSGWVWV-CONH2] | 0.5 to 200 µM |
